# credit: patent US20250313563A1

Subject of test: GSK3b (GST-full length GSK3b) (Homo sapiens (Human), UniProt P49841)
Sequence (P49841 whole entry): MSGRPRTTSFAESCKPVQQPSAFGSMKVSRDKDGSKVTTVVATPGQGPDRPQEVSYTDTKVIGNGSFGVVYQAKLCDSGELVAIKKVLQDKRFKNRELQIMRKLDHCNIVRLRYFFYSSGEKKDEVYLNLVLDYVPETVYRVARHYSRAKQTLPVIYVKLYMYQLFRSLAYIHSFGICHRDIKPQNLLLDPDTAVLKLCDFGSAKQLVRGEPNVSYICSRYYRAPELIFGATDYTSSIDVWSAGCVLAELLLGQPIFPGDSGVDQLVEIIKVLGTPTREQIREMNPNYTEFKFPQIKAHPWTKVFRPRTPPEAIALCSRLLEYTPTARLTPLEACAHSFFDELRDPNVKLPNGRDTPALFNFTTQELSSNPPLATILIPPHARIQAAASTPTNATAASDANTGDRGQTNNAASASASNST
Measurement notes: GSK3b TR-FRET kinase assay
Format: biochemical
Experimental conditions: 1 nM GSK3b, 2 μM ATP, 30 minute preincubation, Table 16; read-out: GSK3-B TR-FRET BIOCHEMICAL (TR-FRET)
pIC50: −log10 of the molar value.
Property measured: pIC50

Solved cases below.
Mol smiles | Test result
Cc1ccc(S(=O)(=O)N2CCC3(CC2)C2=C(CC(C)(C)CC2=O)Nc2n[nH]cc23)cc1Cl | ≥ 7.00
CC[C@@]1(c2cccc(C(F)(F)F)c2)C2=C(C[C@]3(CCNC3=O)CC2=O)Nc2n[nH]cc21 | < 5.30

Then this compound:
Annotate the compound "CC[C@]1(c2cccc(-c3ccnc(C)c3)c2)C2=C(C[C@]3(CCOC3)NC2=O)Nc2n[nH]cc21" with its measured pIC50.
6.00 to 7.00

---

# pIC50 per entry
Subject of test: GSK3α (GST-full length GSK3α) (Homo sapiens (Human))
Sequence (P49840 whole entry): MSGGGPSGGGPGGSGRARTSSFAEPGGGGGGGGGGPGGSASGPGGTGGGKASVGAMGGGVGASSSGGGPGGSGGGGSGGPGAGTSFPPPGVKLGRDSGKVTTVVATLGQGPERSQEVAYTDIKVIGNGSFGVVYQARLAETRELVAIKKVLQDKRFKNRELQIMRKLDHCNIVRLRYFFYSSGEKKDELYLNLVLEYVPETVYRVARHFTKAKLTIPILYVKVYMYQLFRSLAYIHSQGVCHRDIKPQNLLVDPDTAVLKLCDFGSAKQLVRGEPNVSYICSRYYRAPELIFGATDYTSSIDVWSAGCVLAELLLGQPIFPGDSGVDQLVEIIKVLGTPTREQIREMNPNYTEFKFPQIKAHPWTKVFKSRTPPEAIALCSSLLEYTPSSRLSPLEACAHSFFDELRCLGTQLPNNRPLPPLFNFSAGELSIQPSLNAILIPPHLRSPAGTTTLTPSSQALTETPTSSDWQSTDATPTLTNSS
Measurement notes: GSK3α TR-FRET kinase assay
Format: biochemical
Experimental conditions: 1 nM GSK3α, 4 μM ATP, 30 minute preincubation, Table 16; read-out: GSK3-A TR-FRET BIOCHEMICAL (TR-FRET); IC50
pIC50: −log10 of the molar value.

Solved cases below.
Compound | pIC50
CC[C@@]1(c2cccc(S(=O)(=O)C3CC3)c2)C2=C(CC(C)(C)N(C)C2=O)Nc2n[nH]cc21 | 5.30 to 6.00
CC[C@@]1(c2cccc(-c3cnn(CCN4CCCC4)c3)c2)C2=C(CC(C)(C)NC2=O)Nc2n[nH]cc21 | < 5.30
CCC1(c2cccc(N3CC(C)(C)C3C(C)C)c2)C2=C(CC(C)(C)CC2=O)Nc2n[nH]cc21 (stereo not shown) | 6.00 to 7.00
CC[C@]1(c2cccc(-c3c(C)cnn3C)c2)C2=C(CC(C)(C)NC2=O)Nc2n[nH]cc21 | ≥ 7.00
CCC1(c2cccc(N(C)c3cc(C)nc(C)c3)c2)C2=C(CC(C)(C)CC2=O)Nc2n[nH]cc21 (stereo not shown) | 5.30 to 6.00
CCC1(c2cccc(N3CCCCC3)c2)C2=C(CC(C)(C)CC2=O)Nc2n[nH]c(C)c21 (stereo not shown) | 6.00 to 7.00
CCC1(c2cccc(N3CCCC3C)c2)C2=C(CC(C)(C)CC2=O)Nc2n[nH]cc21 (mixture of isomers) [Compound 885188] | 6.00 to 7.00
CC[C@@]1(c2ccccc2)C2=C(Nc3n[nH]cc31)[C@@H](C)C[C@@H](C)C2=O | 6.00 to 7.00

Annotate the compound "CC[C@]1(c2cccc(-c3cnn(-c4ccncn4)c3)c2)C2=C(CC(C)(C)NC2=O)Nc2n[nH]cc21" with its measured pIC50.
6.00 to 7.00

Annotate the compound CCC1(c2cccc(N3CCOCC3)c2)C2=C(CC(C)(C)CC2=O)Nc2n[nH]c(C)c21 (stereo not shown) with its measured pIC50.
6.00 to 7.00

Annotate the compound "CCC1(CC)C2=C(CC(C)(C)CC2=O)Nc2n[nH]c(C3CC3)c21" with its measured pIC50.
< 5.30

Annotate the compound CC1(C)CC(=O)C2=C(C1)Nc1n[nH]cc1C21CCCN(c2ccncn2)CC1 (stereo not shown) with its measured pIC50.
5.30 to 6.00

Annotate the compound CCC1(c2cccc(N3CCOc4ccccc43)c2)C2=C(CC(C)(C)CC2=O)Nc2n[nH]cc21 (stereo not shown) with its measured pIC50.
≥ 7.00

Annotate the compound CC(=O)N1CCC2(C1)C1=C(CC(C)(C)CC1=O)Nc1n[nH]cc12 (stereo not shown) with its measured pIC50.
6.00 to 7.00

Annotate the compound CCC1(c2cccc(N(C)c3cccnn3)c2)C2=C(CC(C)(C)CC2=O)Nc2n[nH]cc21 (stereo not shown) [Compound 911975] with its measured pIC50.
≥ 7.00

Annotate the compound CCN(c1cccc(C2(CC)C3=C(CC(C)(C)CC3=O)Nc3n[nH]cc32)c1)c1ncccn1 (stereo not shown) with its measured pIC50.
≥ 7.00

Annotate the compound CCC1(c2cccc(-c3cn(C)nc3C)c2)C2=C(CC(C)(C)C2=O)Nc2n[nH]cc21 (stereo not shown) with its measured pIC50.
≥ 7.00

Annotate the compound "CC[C@@]1(c2cccc(N(C)c3ncccn3)c2)C2=C(CC(C)(C)NC2=O)Nc2n[nH]c(Cl)c21" with its measured pIC50.
6.00 to 7.00

Annotate the compound CCC1(c2cccc(C(F)(F)F)c2)C2=C(CCN(c3ccccn3)C2=O)Nc2n[nH]cc21 (stereo not shown) with its measured pIC50.
≥ 7.00
